system: CEM cells HIV-1 protection, formazan growth assay; experiment: NCI AIDS Antiviral Assay;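 active = compounds giving half or more protection of infected cells from virus-caused growth loss, again on retest; inactive = the rest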
Parameter call: string, one of True for active, False for inactive

# example entries with known answers
smiles-representation | assigned-class
COc1ccc(-c2nnc(-c3nsc4ccccc34)o2)cc1 | False
CC(=O)Nc1ncc(Sc2ccccc2C(=O)O)s1 | False

// query Can you look up the reported call for `O=C(c1c(O)cc(O)cc1O)c1c(-c2ccc(O)cc2)oc2cc(O)c3c(c12)O[C@H](c1ccc(O)cc1)[C@@H](O)C3` for me?
// result True

// query Query: recorded result category for `NC1=NC(=O)CS1` in this test
// result False

// query How was `NCCCN(CCCN(C(=O)Nc1ccccc1)c1ccccc1)C(=O)Nc1ccccc1` classified in this test?
// result False

// query Recorded test call requested for `Cc1ccccc1NC(=O)C(=O)Cc1nc2ccccc2s1`
// result False

---

tested on: CEM cells HIV-1 protection, formazan growth assay; assay: NCI AIDS Antiviral Assay; conditions: measured here: growth of uninfected CEM cells
readout-type: IC50 (µM)
Express your answer in µM, writing the number without its unit.

# annotated cases, reported IC50 shown
smiles-representation | IC50 / µM
COc1cc(/C=C2/N=C(c3ccccc3)N(C3=NNC4(C(=O)N3)c3ccccc3-c3ccccc34)NC2=O)ccc1O | 75.9
O=C(O)c1cc2ccccc2c(I)c1O | 105
COC(=O)CCCC(=O)C1=Nc2ccccc2CN(c2ccc(Cl)cc2)N1 | 126

Continue with the molecule presented below.
// query Entry `CC(C)c1ccc(/C=C2\CSC/C(=C\c3ccc(C(C)C)cc3)C2=O)cc1` has what IC50?
// result 123

---

Tested on: CEM cells HIV-1 protection, formazan growth assay
Assay: NCI AIDS Antiviral Assay
Settings: measured here: growth of uninfected CEM cells
Procedure: The ability of compounds to protect human CEM cells from HIV-1 infection is measured as a screen for new compounds capable of inhibiting the HIV virus. Five concentrations of drug were tested on uninfected and infected cells and cell growth was measured using a soluble formazan assay. […] Compounds that provided at least 50% protection were retested. Compounds that provided at least 50% protection on retest were listed as moderately active. […]
pIC50: −log10 of the molar value.
readout-type: pIC50

The examples below pair each entry with its known result.
molecule | assayed-target | pIC50
O=C1CC2c3c(OCc4ccccc4)cc(OCc4ccccc4)cc3OC2O1 (centres undefined) | CEM cells HIV-1 protection, formazan growth assay | < 4.59
COc1ccc(-c2cn3c([nH]c(=O)c4cc(Br)ccc43)c2C#N)cc1 | CEM cells HIV-1 protection, formazan growth assay | 3.74

// query I am curious: what pIC50 value has been reported for Oc1c(C2=NNC(c3ccc(Cl)cc3Cl)C2)ccc2ccccc12 (centres undefined) ?
// result 4.49

// query # get_value(readout='pIC50', item= Cn1cc2ccccc2c1-c1nc(F)nc(Oc2ccc3c(c2)CC[C@@H]2C3CC[C@@]3(C)C2C[C@H](O)[C@@H]3O)n1 (some centres undefined) )
// result < 5.00

---

test system: CEM cells HIV-1 protection, formazan growth assay; experiment: NCI AIDS Antiviral Assay; details: measured here: growth of uninfected CEM cells
readout-type: IC50 (µM)
Value expressed in µM; do not type the unit.

compound | IC50 / µM
CC(=O)Nc1c(S(=O)(=O)c2ccccc2)c(C)c(C)n1Cc1ccccc1 | 132
CC(=O)C1=C(O)C(c2ccccc2)c2ccccc21 (stereo unspecified) | 97.7
O=C1c2c(F)c(F)c(F)c(F)c2SC2=Nc3cccc4cccc(c34)N12 | 1

// query Please give the measured IC50 for this compound: `C=CCNC(=S)/N=C/C(C(=O)Nc1ccc(Cl)cc1)=C(\C)O`
// result 129

// query # query: IC50 of entry `COC(=O)Cc1c([C@H]2[C@H](CC(=O)OC)c3ccccc3N2C(=O)C(F)(F)F)[nH]c2ccccc12`
// result 27.5

The reported measurements were obtained from PubChem BioAssay AID179.
